- Assay Target: Galectin-3 (Homo sapiens)
- Sequence (P17931 whole entry): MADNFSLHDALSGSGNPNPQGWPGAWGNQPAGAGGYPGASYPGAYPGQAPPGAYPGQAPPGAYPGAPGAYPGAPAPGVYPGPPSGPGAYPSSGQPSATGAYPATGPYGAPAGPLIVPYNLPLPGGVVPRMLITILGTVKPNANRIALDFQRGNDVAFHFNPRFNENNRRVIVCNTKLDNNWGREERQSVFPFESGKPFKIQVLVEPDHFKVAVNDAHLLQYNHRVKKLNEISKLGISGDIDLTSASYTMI
- Assay: Fluorescence anisotropy assay, affinity for galectin-3
- Study Conditions: compound as inhibitor of the interaction between galectin and a fluorescein tagged saccharide probe
Quantity Kind: Kd (nM)

Compound | Assay Target | Reported Measurement
COC1C(n2cc(-n3ccc(Cl)n3)nn2)[C@@H](O)C(CO)O[C@@H]1Sc1cc(Br)cnc1C(=O)N(CC1CC1)OC (stereo partly shown) | Galectin-3 (Homo sapiens) | 68
COC1C(n2cc(-n3ccc(Cl)n3)nn2)[C@@H](O)C(CO)O[C@@H]1Sc1cc(Br)cnc1C(=O)N(C)CC(C)(C)F (stereo partly shown) | Galectin-3 (Homo sapiens) | 76
CCN(C(=O)c1ncc(Br)cc1S[C@H]1OC(CO)[C@H](O)C(n2cc(-n3ccc(Cl)n3)nn2)C1OC)C(C)(C)C (stereo partly shown) | Galectin-3 (Homo sapiens) | 72
COC1C(n2cc(-n3ccc(Cl)n3)nn2)[C@@H](O)C(CO)O[C@@H]1Sc1cc(Br)cnc1C(=O)N(CC1CCC1)C(C)C (stereo partly shown) | Galectin-3 (Homo sapiens) | 110
COC1[C@@H](Sc2cc(Br)cnc2C(=O)NC23CC(C2)C3)OC(CO)[C@H](O)[C@@H]1n1cc(-n2ccc(Cl)n2)nn1 (stereo partly shown) | Galectin-3 (Homo sapiens) | 180

(A) COC1C(n2cc(-n3ccc(Cl)n3)nn2)[C@@H](O)C(CO)O[C@@H]1Sc1cc(Br)cnc1C(=O)N1CCCC1 (stereo partly shown)
(B) COC1C(n2cc(-n3ccc(C)n3)nn2)[C@@H](O)C(CO)O[C@@H]1Sc1cc(Br)cnc1C#N (stereo partly shown)
(C) COC1C(n2cc(-n3ccc(Cl)n3)nn2)[C@@H](O)C(CO)O[C@@H]1Sc1cc(Br)ccc1C#N (stereo partly shown)
(D) COC1C(n2cc(-n3ccc(Cl)n3)nn2)[C@@H](O)C(CO)O[C@@H]1Sc1cc(Cl)cnc1C(F)(F)F (stereo partly shown)
[in] Rank ascending by Kd. Would you mind listing the labels in the order asked for?
[out] A, C, D, B

(a) CCN(CC(C)(C)F)C(=O)c1ncc(Br)cc1S[C@H]1OC(CO)[C@H](O)C(n2cc(-n3ccc(Cl)n3)nn2)C1OC (stereo partly shown)
(b) COC1C(n2cc(-n3ccc(F)n3)nn2)[C@@H](O)C(CO)O[C@@H]1Sc1cc(Br)cnc1C#N (stereo partly shown)
(c) COC1C(n2cc(-n3cc(C)c(Cl)n3)nn2)[C@@H](O)C(CO)O[C@@H]1Sc1cc(Br)cnc1C#N (stereo partly shown)
[in] Thanks in advance: please rank these 3 entries by Kd, highest to lowest. Would you mind listing the labels in the order asked for?
[out] b, a, c

(1) CCCCNC(=O)c1ncc(Br)cc1S[C@H]1OC(CO)[C@H](O)[C@H](n2cc(-n3ccc(Cl)n3)nn2)C1OC (stereo partly shown)
(2) COC1C(n2cc(-n3ccc(Cl)n3)nn2)[C@@H](O)C(CO)O[C@@H]1Sc1cc(Br)cnc1C(F)(F)F (stereo partly shown)
[in] Select the item with the higher value of Kd from the options 1 and 2 listed. Please identify the chosen entry by its label.
[out] 2

(P) CNC(=O)c1ncc(Br)cc1S[C@H]1OC(CO)[C@H](O)C(n2cc(-n3ccc(Cl)n3)nn2)C1OC (stereo partly shown)
(Q) COC1C(n2cc(-n3ccc(Cl)n3)nn2)[C@@H](O)C(CO)O[C@@H]1Sc1cc(Br)cnc1C(=O)N(CC(C)C)C(C)C (stereo partly shown)
(R) COC1C(n2cc(-n3ccc(Cl)n3)nn2)[C@@H](O)C(CO)O[C@@H]1Sc1cc(Br)cnc1C(=O)N(CC(C)C)CC(C)C (stereo partly shown)
[in] Thanks in advance: please rank these 3 entries by Kd, highest to lowest. Would you mind listing the labels in the order asked for?
[out] R, P, Q

---

- Assay Target: Galectin-1 (Homo sapiens, UniProt P09382)
- Sequence (P09382 whole entry): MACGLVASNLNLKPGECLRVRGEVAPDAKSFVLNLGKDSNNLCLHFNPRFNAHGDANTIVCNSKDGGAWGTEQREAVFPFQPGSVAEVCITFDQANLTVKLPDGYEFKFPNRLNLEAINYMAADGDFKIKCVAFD
- Assay: Fluorescence anisotropy assay, affinity for galectin-1
- Study Conditions: compound as inhibitor of the interaction between galectin and a fluorescein tagged saccharide probe
- Experimental: The affinity of Example 1-43 for galectins were determined by a fluorescence anisotropy assay where the compound was used as an inhibitor of the interaction between galectin and a fluorescein tagged saccharide probe as described Sörme, P., Kahl-Knutsson, B., Huflejt, M., Nilsson, U. J., and Leffler H. (2004) Fluorescence polarization as an analytical tool to evaluate galectin-ligand interactions. […]
pKd: −log10 of the molar value.
Quantity Kind: pKd

Past entries and their recorded results:
Compound | Assay Target | Quantity Kind | Reported Measurement
COC1C(n2cc(-n3ccc(Cl)n3)nn2)[C@@H](O)C(CO)O[C@@H]1Sc1cc(Cl)cnc1C(F)(F)F (stereo partly shown) [Example 6] | Galectin-1 (Homo sapiens, UniProt P09382) | pKd | 6.70
OCC1O[C@H](Sc2cncc(Cl)c2)C(O)C(n2cc(-n3ccc(F)n3)nn2)[C@H]1O (stereo partly shown) [Example 4] | Galectin-1 (Homo sapiens, UniProt P09382) | pKd | 5.77
CNC(=O)c1ncc(Br)cc1S[C@H]1OC(CO)[C@H](O)C(n2cc(-n3ccc(Cl)n3)nn2)C1OC (stereo partly shown) [Example 34] | Galectin-1 (Homo sapiens, UniProt P09382) | pKd | 7.20

(I) CNC(=O)c1ccc(Br)cc1S[C@H]1OC(CO)[C@H](O)C(n2cc(-n3ccc(Cl)n3)nn2)C1OC (stereo partly shown) [Example 1]
(II) COC1C(n2cc(-n3ccc(Cl)n3)nn2)[C@@H](O)C(CO)O[C@@H]1Sc1cnc(C(F)(F)F)c(Br)c1 (stereo partly shown) [Example 9]
(III) COC1C(n2cc(-n3ccc(Cl)n3)nn2)[C@@H](O)C(CO)O[C@@H]1Sc1cc(Br)cnc1C(=O)N(CC(C)C)CC(C)C (stereo partly shown) [Example 20]
(IV) COC1C(n2cc(-n3ccc(Cl)n3)nn2)[C@@H](O)C(CO)O[C@@H]1Sc1cc(Br)cnc1C(=O)N(CC1CC1)CC1CC1 (stereo partly shown) [Example 24]
[in] Rank ascending by pKd. Would you mind listing the labels in the order asked for?
[out] III, II, IV, I

---

- Assay Target: UniProtKB P09382
- Assay: Fluorescence anisotropy assay, affinity for galectin-1
- Study Conditions: compound as inhibitor of the interaction between galectin and a fluorescein tagged saccharide probe
pKd: −log10 of the molar value.
Quantity Kind: pKd

Past entries and their recorded results:
Compound | Reported Measurement
COC1C(n2cc(-n3ccc(Cl)n3)nn2)[C@@H](O)C(CO)O[C@@H]1Sc1cc(Br)cnc1C#N (some centres unmarked) | 6.89
COC1C(n2cc(-n3ccc(Cl)n3)nn2)[C@@H](O)C(CO)O[C@@H]1Sc1cc(Br)ccc1C#N (some centres unmarked) | 7.07
CCN(CC(C)(C)F)C(=O)c1ncc(Br)cc1S[C@H]1OC(CO)[C@H](O)C(n2cc(-n3ccc(Cl)n3)nn2)C1OC (some centres unmarked) | 6.85

(a) COC1C(n2cc(-n3ccc(Cl)n3)nn2)[C@@H](O)C(CO)O[C@@H]1Sc1cc(Br)cnc1C(=O)N(CC1CCC1)C(C)C (some centres unmarked)
(b) COC1[C@@H](Sc2cc(Br)cnc2C(=O)NC2CCC2)OC(CO)[C@H](O)[C@@H]1n1cc(-n2ccc(Cl)n2)nn1 (some centres unmarked)
[in] Given the listed items, does a or b have the lesser reported pKd? Please identify the chosen entry by its label.
[out] a

---

- Assay Target: Galectin-1 (Homo sapiens, UniProt P09382)
- Assay: Fluorescence anisotropy assay, affinity for galectin-1
- Study Conditions: compound as inhibitor of the interaction between galectin and a fluorescein tagged saccharide probe
pKd: −log10 of the molar value.
Quantity Kind: pKd

Past entries and their recorded results:
Compound | Quantity Kind | Reported Measurement
CCN(CC(F)(F)F)C(=O)c1ncc(Br)cc1S[C@H]1OC(CO)[C@H](O)C(n2cc(-n3ccc(Cl)n3)nn2)C1OC (stereo partly shown) [Example 29] | pKd | 7.00
COC1C(n2cc(-n3ccc(Cl)n3)nn2)[C@@H](O)C(CO)O[C@@H]1Sc1cc(Br)cnc1C(=O)N(CC1CC1)OC (stereo partly shown) [Example 33] | pKd | 7.13

(a) COC1[C@@H](Sc2cc(Br)cnc2C(=O)NC2CC2)OC(CO)[C@H](O)[C@@H]1n1cc(-n2ccc(Cl)n2)nn1 (stereo partly shown) [Example 41]
(b) COC1C(n2cc(-n3ccc(Cl)n3)nn2)[C@@H](O)C(CO)O[C@@H]1Sc1cc(Br)cnc1C(F)(F)F (stereo partly shown) [Example 7]
[in] Select the item with the higher value of pKd from the options a and b listed. Please identify the chosen entry by its label.
[out] a
(a: 7.14, b: 6.82)

---

- Assay Target: Galectin-3 (Homo sapiens)
- Assay: Fluorescence anisotropy assay, affinity for galectin-3
- Study Conditions: compound as inhibitor of the interaction between galectin and a fluorescein tagged saccharide probe
pKd: −log10 of the molar value.
Quantity Kind: pKd

Past entries and their recorded results:
Compound | Reported Measurement
COC1C(n2cc(-n3ccc(Cl)n3)nn2)[C@@H](O)C(CO)O[C@@H]1Sc1cc(Br)cnc1C#N (some centres unmarked) | 6.92
CCN(CC1CCC1)C(=O)c1ncc(Br)cc1S[C@H]1OC(CO)[C@H](O)C(n2cc(-n3ccc(Cl)n3)nn2)C1OC (some centres unmarked) | 7.12
CNC(=O)c1ccc(Br)cc1S[C@H]1OC(CO)[C@H](O)C(n2cc(-n3ccc(Cl)n3)nn2)C1OC (some centres unmarked) | 6.80
COC1C(n2cc(-n3ccc(Cl)n3)nn2)[C@@H](O)C(CO)O[C@@H]1Sc1cc(Br)cnc1C(=O)N(CC1CC1)CC1CC1 (some centres unmarked) | 7.08
COC1C(n2cc(-n3cc(Cl)cn3)nn2)[C@@H](O)C(CO)O[C@@H]1Sc1cc(Br)cnc1C#N (some centres unmarked) | 6.38

(a) COC1[C@@H](Sc2cc(Br)cnc2C(=O)NC2CC2)OC(CO)[C@H](O)[C@@H]1n1cc(-n2ccc(Cl)n2)nn1 (some centres unmarked)
(b) COC1C(n2cc(-n3cc(F)cn3)nn2)[C@@H](O)C(CO)O[C@@H]1Sc1cc(Br)cnc1C#N (some centres unmarked)
(c) COC1C(n2cc(-n3cc(Cl)c(Cl)n3)nn2)[C@@H](O)C(CO)O[C@@H]1Sc1cc(Br)cnc1C#N (some centres unmarked)
(d) OCC1O[C@H](Sc2cncc(Cl)c2)C(O)C(n2cc(-n3ccc(Cl)n3)nn2)[C@H]1O (some centres unmarked)
[in] Thanks in advance: please rank these 4 entries by pKd, highest to lowest. Would you mind listing the labels in the order asked for?
[out] c, a, d, b
(c: 7.52, a: 6.80, d: 6.51, b: 5.77)
